Origin of values: paper PMC5733478

Below: a set of entries, each annotated with reported % 25 nM CA200645 binding.
target: human A3AR (Homo sapiens); construct: expressed in transfected cells; assay: LOPAC library primary screen: single concentration (10 μM) inhibition of 25 nM CA200645 binding, PHERAstar FS
Sequence (P0DMS8 whole entry): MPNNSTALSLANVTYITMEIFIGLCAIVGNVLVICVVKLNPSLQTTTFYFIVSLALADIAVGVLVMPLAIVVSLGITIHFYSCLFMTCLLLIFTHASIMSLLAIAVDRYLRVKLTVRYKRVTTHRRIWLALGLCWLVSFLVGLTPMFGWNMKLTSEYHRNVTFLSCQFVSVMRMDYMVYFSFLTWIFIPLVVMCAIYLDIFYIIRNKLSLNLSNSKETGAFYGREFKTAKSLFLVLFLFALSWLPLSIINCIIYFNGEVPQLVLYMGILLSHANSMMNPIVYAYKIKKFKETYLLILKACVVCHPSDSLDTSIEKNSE
Counter-ions that a name gives are not always drawn.

[
  {
    "compound": "CNc1ncnc2c1ncn2[C@H]1C[C@H](OP(=O)(O)O)[C@@H](COP(=O)(O)O)O1 [MRS 2179]",
    "unit tag": "%",
    "% 25 nM CA200645 binding": 108.4
  },
  {
    "compound": "Nc1nc2c(ncn2[C@@H]2O[C@H](CO)[C@@H](O)[C@@H]2O)c(=O)[nH]1.O [Ara-G hydrate]",
    "unit tag": "%",
    "% 25 nM CA200645 binding": 96.8
  },
  {
    "compound": "NC(Cc1ccc(Cl)cc1)C(=O)O (racemic) [(±)-p-Chlorophenylalanine]",
    "unit tag": "%",
    "% 25 nM CA200645 binding": 94.9
  },
  {
    "compound": "Cc1cc(O)c2c(c1)C(=O)c1cc(O)cc(O)c1C2=O [Emodin]",
    "unit tag": "%",
    "% 25 nM CA200645 binding": 52.8
  },
  {
    "compound": "NS(=O)(=O)c1cc2c(cc1Cl)N=CNS2(=O)=O [Chlorothiazide]",
    "unit tag": "%",
    "% 25 nM CA200645 binding": 107.7
  },
  {
    "compound": "Oc1cccc2c(O)nccc12 [1,5-Isoquinolinediol]",
    "unit tag": "%",
    "% 25 nM CA200645 binding": 97.2
  },
  {
    "compound": "N[C@@H](CC(=O)O)C(=O)O [L-Aspartic acid]",
    "unit tag": "%",
    "% 25 nM CA200645 binding": 99.3
  },
  {
    "compound": "CC(C)N(CCC(C(N)=O)(c1ccccc1)c1ccccn1)C(C)C (stereo not shown) [Disopyramide phosphate]",
    "unit tag": "%",
    "% 25 nM CA200645 binding": 98.5
  },
  {
    "compound": "CC(C)NC(C)Cc1ccc(I)cc1 (stereo not shown) [Iofetamine hydrochloride]",
    "unit tag": "%",
    "% 25 nM CA200645 binding": 100.8
  },
  {
    "compound": "NC(=O)NO [Hydroxyurea]",
    "unit tag": "%",
    "% 25 nM CA200645 binding": 107.6
  }
]
